From: ChEMBL document CHEMBL3758117

- STUDY_TARGET: DNA topoisomerase 2-alpha (Homo sapiens)
- TEST_METHOD_NOTES: Inhibition of human DNA topoisomerase 2-mediated relaxation of supercoiled pBR322 DNA at 10 uM after 30 mins by ethidium bromide staining based agarose gel electrophoresis
Calls of active or inactive are those of the source. The calls are words filed in the database; no cut-off is given here.
Log the outcome using a class from yes for active, no for inactive

Sample answers from the record:
>>> df
                            compound_string  assigned_label
0  CN(C)CCNC(=O)c1cccc2nc3c(nc12)-c1ccccc1C3=O              no
1  CN(C)CCCNC(=O)c1cccc2nc3c(nc12)-c1ccccc1/C3=N\OCCCN(C)C.Cl             yes
2  COc1ccc2c(c1)/C(=N\OCCN1CCCC1)c1c-2c(O)nc2ccccc12             yes
3  Cc1cccc2nc3c(nc12)-c1ccccc1/C3=N\OCCCN(C)C.Cl              no
4  Cl.c1ccc2c(c1)/C(=N\OCCN1CCCC1)c1nc3ccccc3nc1-2              no
5  O=C1c2ccccc2-c2nc3c(C(=O)NCCN4CCCC4)cccc3nc21              no
6  CN(C)CCCO/N=C/c1cccc2nc3c(nc12)-c1ccccc1/C3=N\OCCCN(C)C.Cl             yes
7  CN(C)CCCO/N=C1\c2ccccc2-c2nc3c(C(=O)NCCN(C)C)cccc3nc21.Cl             yes

# next compound below
Field: outcome | Entry: CN(C)CCCO/N=C1\c2ccccc2-c2nc3c(C(=O)NCCN4CCOCC4)cccc3nc21.Cl
no
